Where do these numbers come from? They come from patent US20190110476A1.

Experiment: Measurement of LogP values by HPLC on reversed phase columns (EEC directive 79/831 Annex V.A8)
Type: physicochemical
Description: The abbreviations and numerations of the substituent positions used in the context of the present invention and in the following Tables are explained in detail in the section Examples hereinafter. Also, the LogP values indicated in the following Tables are explained in detail in the section Examples hereinafter. […] Lambda-max-values were determined using UV-spectra from 200 nm to 400 nm and the peak values of the chromatographic signals
Marks after values point to notes of the source that are not given here.
Entries and their LogP values follow.

// solved cases for LogP follow
Compound | LogP
COc1ccc(CNc2nsc(C(=O)N(CC(C)C)C3CC3)c2Cl)cc1 | 4.09[a]
Nc1cc(C(=O)NCC2CCC(O)C2)sn1 (centres unmarked) | 0.36[a]

(Q) Indicate the recorded LogP value for this compound: COc1ccc(CNc2nsc(C(=O)NC(C)c3ccsc3)c2Cl)cc1 (centres unmarked)
(A) 3.61[a]

(Q) Indicate the recorded LogP value for this compound: Nc1nsc(C(=O)NCC2CCCO2)c1Cl (centres unmarked)
(A) 1.02[a]

* * *

Assay: Measurement of LogP values by HPLC on reversed phase columns (EEC directive 79/831 Annex V.A8)
Assay type: physicochemical
Measured Quantity: LogP [a]

P: Nc1nsc(C(=O)N2CCc3ccccc32)c1Cl
Q: COc1ccc(CNc2nsc(C(=O)N3CCCc4cc(C)ccc43)c2Cl)cc1
(Q) Larger number for LogP [a]: P , or Q ? Refer to your chosen entry by its label in the reply.
(A) Q

* * *

Assay: Measurement of LogP values by HPLC on reversed phase columns (EEC directive 79/831 Annex V.A8)
Type: physicochemical
Measured Quantity: LogP [b]

// solved cases for LogP [b] follow
Compound | LogP [b]
O=C(NC(Cc1ccccc1)C1CC=CCC1)c1snc(Cl)c1Cl (centres unmarked) | 4.75
Nc1nsc(C(=O)N2CCc3c(Cl)ccc(Cl)c3C2)c1Cl | 2.82
O=C(NC1CCCc2ccccc21)c1snc(Cl)c1Cl (centres unmarked) | 3.98
COc1ccc(CNc2nsc(C(=O)N3c4ccccc4CCC3C)c2Cl)cc1 (centres unmarked) | 4.09
Nc1nsc(C(=O)N2CCCc3cc(Cl)ccc32)c1Cl | 2.60
COc1ccc(CNc2nsc(C(=O)N3CCCc4cccc(C)c43)c2Cl)cc1 | 4.14
O=C(NC(CCc1ccccc1)C1CCC1)c1snc(Cl)c1Cl (centres unmarked) | 4.91
COc1ccc(CNc2nsc(C(=O)N3CCc4c(Cl)ccc(Cl)c4C3)c2Cl)cc1 | 4.55
COc1ccc(CNc2nsc(C(=O)N3CCCc4ccc(C(F)(F)F)cc43)c2Cl)cc1 | 4.25

P: COc1ccc2c(c1)CCCN2C(=O)c1snc(N)c1Cl
Q: CON(C(=O)c1snc(Cl)c1Cl)C(C)C1CCCCC1 (centres unmarked)
(Q) Please choose the item with the lower LogP [b] value from this pair: P and Q Refer to your chosen entry by its label in the reply.
(A) P

* * *

Assay: Measurement of LogP values by HPLC on reversed phase columns (EEC directive 79/831 Annex V.A8)
Assay type: physicochemical
Marks after values point to notes of the source that are not given here.
Measured Quantity: LogP

// solved cases for LogP follow
Compound | LogP
CC(c1ccc(Cl)cc1Cl)N(C(=O)c1snc(N)c1Cl)C1CC1 (centres unmarked) | 3.50[a]
Nc1cc(C(=O)NCc2cc(Cl)cc(Cl)c2)sn1 | 2.18[a]

(Q) Indicate the recorded LogP value for this compound: COC1(CNC(=O)c2snc(N)c2Cl)CCC(C)CC1 (centres unmarked)
(A) 2.58[a]

(Q) Indicate the recorded LogP value for this compound: CCC(C)C(C)N(C(=O)c1cc(N(Cc2ccccc2)Cc2ccccc2)ns1)C1CC1 (centres unmarked)
(A) 5.97[a]

(Q) Indicate the recorded LogP value for this compound: "O=C(c1cc(N(Cc2ccccc2)Cc2ccccc2)ns1)N(Cc1ccc(Cl)cc1Cl)C1CC1"
(A) 6.30[a]

(Q) Indicate the recorded LogP value for this compound: "COc1ccc(CNc2nsc(C(=O)NCc3cc(C(F)(F)F)ccc3Cl)c2Cl)cc1"
(A) 4.37[a]

(Q) Indicate the recorded LogP value for this compound: "COc1ccc(CNc2nsc(C(=O)Nc3ccc(C)c(Cl)c3)c2Cl)cc1"
(A) 4.63[a]

(Q) Indicate the recorded LogP value for this compound: "Nc1nsc(C(=O)N(c2cc(F)cc(F)c2)C2CC2)c1Cl"
(A) 2.48[a]

(Q) Indicate the recorded LogP value for this compound: "C[C@H](NC(=O)c1snc(Nc2ccc(F)cc2)c1Cl)C1CCCCC1"
(A) 4.81[a]

(Q) Indicate the recorded LogP value for this compound: "Cc1ccc(F)c(CN(C(=O)c2snc(N)c2Cl)C2CC2)c1"
(A) 2.80[a]

(Q) Indicate the recorded LogP value for this compound: "Cc1cc(C)c(CN(C(=O)c2snc(N)c2Cl)C2CC2)c(C)c1"
(A) 3.46[a]

(Q) Indicate the recorded LogP value for this compound: "COc1ccc(CNc2nsc(C(=O)NCc3cccc(OC)c3F)c2Cl)cc1"
(A) 3.46[a]

(Q) Indicate the recorded LogP value for this compound: "CC(=O)N(C(C)=O)c1nsc(C(=O)NCc2ccc(C#N)cc2)c1Cl"
(A) 2.12[a]

(Q) Indicate the recorded LogP value for this compound: "Nc1nsc(C(=O)NCc2ccc(F)c(F)c2F)c1Cl"
(A) 2.09[a]

(Q) Indicate the recorded LogP value for this compound: "Nc1nsc(C(=O)NCC2CCCCC2)c1O"
(A) 2.12[a]

(Q) Indicate the recorded LogP value for this compound: "Nc1nsc(C(=O)NCc2cc(Cl)ccc2Cl)c1Cl"
(A) 2.71[a]

(Q) Indicate the recorded LogP value for this compound: "Nc1cc(C(=O)NCc2c(F)cc(F)cc2F)sn1"
(A) 1.50[a]

(Q) Indicate the recorded LogP value for this compound: "COc1ccc(CNc2nsc(C(=O)N(c3cc(F)cc(F)c3)C3CC3)c2Cl)cc1"
(A) 4.10[a]

(Q) Indicate the recorded LogP value for this compound: COc1ccc(CNc2nsc(C(=O)NC3CCC(C(C)(C)C)CC3)c2Cl)cc1 (centres unmarked)
(A) 5.51[a]

(Q) Indicate the recorded LogP value for this compound: "COC(=O)Nc1nsc(C(=O)NCc2ccc(Cl)cc2)c1Cl"
(A) 2.29[a]

* * *

Assay: Measurement of LogP values by HPLC on reversed phase columns (EEC directive 79/831 Annex V.A8)
Type: physicochemical
Marks after values point to notes of the source that are not given here.
Measured Quantity: LogP

// solved cases for LogP follow
Molecule | LogP
O=C(c1cc(NCc2ccccc2)ns1)N(Cc1cc(F)ccc1F)C1CC1 [I-998] | 3.74[a]
Cc1cc(C)c(CN(C(=O)c2cc(N)ns2)C2CC2)c(C)c1 [I-977] | 2.86[a]
Nc1nsc(C(=O)N(Cc2c(Cl)cccc2Cl)C2CC2)c1Cl [I-208] | 3.02[a]
CCC(C)CNC(=O)c1snc(N)c1Cl (centres unmarked) [I-1014] | 1.98[a]
CCC(NC(=O)c1cc(N)ns1)C1CCCCC1 (centres unmarked) [I-1407] | 2.30[b]
Nc1nsc(C(=S)NCC2CCCCC2)c1Cl [I-913] | 3.37[a]
CC(NC(=O)c1snc(N)c1Cl)c1ccccc1Cl (centres unmarked) [I-142] | 2.46[a]
CCc1ccccc1C(C)N(C(=O)c1snc(N)c1Cl)C1CC1 (centres unmarked) [I-887] | 3.37[a]
CC(C)(C)OC(=O)Nc1nsc(C(=O)NCC2CCCCC2Cl)c1Cl (centres unmarked) [I-1578] | 3.52[a]
COc1ccc(CNc2nsc(C(=O)Nc3ccc(Cl)cc3)c2Cl)cc1 [I-868] | 4.21[a]

(Q) Indicate the recorded LogP value for this molecule: Nc1nsc(C(=O)NCC2CCC(Cl)CC2)c1Cl (centres unmarked) [I-1579]
(A) 2.20[a]

* * *

Assay: Measurement of LogP values by HPLC on reversed phase columns (EEC directive 79/831 Annex V.A8)
Format: physicochemical
Marks after values point to notes of the source that are not given here.
Entries and their LogP values follow.

// solved cases for LogP follow
Compound | LogP
COc1ccc(CNc2nsc(C(=O)NS(C)(=O)=O)c2Cl)cc1 [I-883] | 1.86[a]
CCn1cc(C(C)NC(=O)c2snc(NCc3ccc(OC)cc3)c2Cl)c(C)n1 (centres unmarked) [I-1349] | 2.73[a]
COc1ccc(CNc2nsc(C(=O)NCC3COCC3C)c2Cl)cc1 (centres unmarked) [I-1200] | 2.68[a]
COc1ccc(CNc2nsc(C(=O)NCc3cc(OC)ccc3OC)c2Cl)cc1 [I-1230] | 3.59[a]
CC(C)(C)C(=O)Nc1nsc(C(=O)NCC2CCCCC2)c1Cl [I-172] | 3.18[a]
Nc1nsc(C(=O)NCc2ccccc2F)c1Br [I-832] | 1.79[a]
COc1ccc(CNc2nsc(C(=O)NCC3(C)CCCCC3)c2Cl)cc1 [I-079] | 4.69[a]
COc1ccc(CNc2nsc(C(=O)N(Cc3ccc(C)cc3C)C3CC3)c2Cl)cc1 [I-892] | 4.80[a]
Nc1cc(C(=O)NCc2cccc(F)c2)sn1 [I-304] | 1.46[a]
CCOC(=O)C1CCC(NC(=O)c2snc(N)c2Cl)CC1 (centres unmarked) [I-843] | 1.92[a]

(Q) Indicate the recorded LogP value for this compound: COc1ccc(CNc2nsc(C(=O)N(Cc3cc(Cl)cc(C(F)(F)F)c3)C3CC3)c2Cl)cc1 [I-947]
(A) 5.11[a]

(Q) Indicate the recorded LogP value for this compound: Nc1nsc(C(=O)NCC2CCCCC2C(F)(F)F)c1Cl (centres unmarked) [I-1566]
(A) 2.63[a]

(Q) Indicate the recorded LogP value for this compound: O=C(NCC1CCCCC1)c1snc(N(Cc2ccccc2)Cc2ccccc2)c1C(F)F [I-394]
(A) 5.88[a]

(Q) Indicate the recorded LogP value for this compound: C[C@@H]1CCCC[C@H]1NC(=O)c1snc(N)c1F (relative stereo) [I-1357]
(A) 2.21[a]

(Q) Indicate the recorded LogP value for this compound: CC1(C)CCCCC1N(C(=O)c1snc(N)c1Cl)C1CC1 (centres unmarked) [I-863]
(A) 3.30[a]

(Q) Indicate the recorded LogP value for this compound: Cc1cc(C)c(CNC(=O)c2snc(N)c2Cl)cc1C [I-328]
(A) 2.78[a]

(Q) Indicate the recorded LogP value for this compound: CC(C)N(Cc1ccc(Cl)cc1Cl)C(=O)c1cc(N(Cc2ccccc2)Cc2ccccc2)ns1 [I-941]
(A) 6.48[a]

(Q) Indicate the recorded LogP value for this compound: COc1ccc(CNc2nsc(C(=O)NCC3C(C)CCCC3(C)C)c2Cl)cc1 (centres unmarked) [I-076]
(A) 5.48[a]

(Q) Indicate the recorded LogP value for this compound: Cc1c(N)nsc1C(=O)NCc1ccc(C#N)cc1F [I-150]
(A) 1.35[a]

(Q) Indicate the recorded LogP value for this compound: Nc1cc(C(=O)N(Cc2cc(F)ccc2F)C2CC2)sn1 [I-997]
(A) 2.18[a]
